Data origin: PubChem BioAssay (NCI)

Experiment: NCI Yeast Anticancer Drug Screen. Data for the cln2 rad14 strain (AID 165);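 also: 0% = growth equal to vehicle treated cultures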
Details: S. cerevisiae cln2 rad14 strain, at 50.0 µM, hits give high values
About 79,000 compounds went through this panel and 15% of them were active in at least one assay; those are over-represented in the sample as a whole.
Let's look at some compounds and their measured growth inhibition.

# Compound, Unit Info, growth inhibition
data = [
    ("Cc1ccc2nc(N)nc(N)c2c1", "%", 3.25),
    ("CCc1ccccc1NC(=O)/C=N/O", "%", -7.3),
    ("Cc1ccc2c(c1)P(=O)(O)c1cc(C)ccc1O2", "%", 3.2),
    ("COc1cc([N+](=O)[O-])cc(C=O)c1O", "%", -67.5),
    ("CCC1CC/C(=N\\Nc2ccc([N+](=O)[O-])cc2[N+](=O)[O-])c2ccc3c(C)ccc(C)c3c21 (centres undefined)", "%", -14.2),
    ("O=C(NCCCl)NCc1ccccc1", "%", -40.1),
    ("CCCCCOS(=O)(=O)O", "%", -11),
    ("Cc1ccc(/C(O)=C/c2nc3ccccc3oc2=O)cc1", "%", -18.7),
    ("C=C1CN(C(=O)NCCCl)C1", "%", -11.3),
]
